Test system: 188146-221-R-J1-PDC complex spheroid viability;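 also: spheroids exposed to compounds for seven days; 100% = DMSO vehicle control viability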
Assay: Anticancer human tumor 188146-221-R-J1-PDC patient-derived colon adenocarcinoma cell line growth inhibition [POLQ]
Conditions: second compound 0.316 µM; first compound 3.16 µM; active compounds read low
attribute.measured: viability, T/C (%)
Write it as a number; the unit % goes unstated.

compound: CC1COCCN1c1cc(C2(O)CC3CCC(C2)O3)c2cnn(-c3ccn[nH]3)c2n1 (stereo not drawn) + Cc1cccc(N(C)C(=O)C2C(O)CCN2c2nc(C)cc(C(F)(F)F)c2C#N)c1
viability, T/C, %: 17.4
//
compound: C#Cc1c(F)ccc2cc(O)cc(-c3ncc4c(N5CC6CCC(C5)N6)nc(OCC56CCCN5CC(F)C6)nc4c3F)c12 (stereo not drawn) + Nc1ccc(C#CCN(C(=O)Cc2ncc(C(F)(F)F)cc2C(F)(F)F)c2ccc(F)cc2)nn1
viability, T/C, %: 87.8
//
compound: C=CC(=O)N1CCN(c2nc(=O)n(-c3c(C)ccnc3C(C)C)c3nc(-c4c(O)cccc4F)c(F)cc23)C(C)C1 (stereo not drawn) + Nc1ccc(C#CCN(C(=O)Cc2ncc(C(F)(F)F)cc2C(F)(F)F)c2ccc(F)cc2)nn1
viability, T/C, %: 104
//
compound: COc1cccc2c1C(=O)c1c(O)c3c(c(O)c1C2=O)CC(O)(C(=O)CO)CC3OC1CC(N)C(O)C(C)O1 (stereo not drawn) + Nc1ccc(C#CCN(C(=O)Cc2ncc(C(F)(F)F)cc2C(F)(F)F)c2ccc(F)cc2)nn1
viability, T/C, %: 0.15
//
compound: O=c1[nH]cc(F)c(=O)[nH]1 + Nc1ccc(C#CCN(C(=O)Cc2ncc(C(F)(F)F)cc2C(F)(F)F)c2ccc(F)cc2)nn1
viability, T/C, %: 48.9

Name the reported viability, T/C value associated with the compound COc1cc2cc(C(=O)CCC(=O)O)sc2cc1OC + Nc1ccc(C#CCN(C(=O)Cc2ncc(C(F)(F)F)cc2C(F)(F)F)c2ccc(F)cc2)nn1
107

Can you look up the measured viability, T/C of CCCS(=O)(=O)Nc1ccc(F)c(C(=O)c2c[nH]c3ncc(-c4ccc(Cl)cc4)cc23)c1F + COC1C(OC(N)=O)C(O)C(Oc2ccc3c(O)c(NC(=O)c4ccc(O)c(CC=C(C)C)c4)c(=O)oc3c2C)OC1(C)C for me?
65.3

Report viability, T/C for COc1cccc2c1C(=O)c1c(O)c3c(c(O)c1C2=O)CC(O)(C(=O)CO)CC3OC1CC(N)C(O)C(C)O1 (stereo not drawn) + COC1C(OC(N)=O)C(O)C(Oc2ccc3c(O)c(NC(=O)c4ccc(O)c(CC=C(C)C)c4)c(=O)oc3c2C)OC1(C)C please.
0.2
